tested-system: human MC3R (human, UniProt P41968 1-323)
Sequence (P41968 whole entry): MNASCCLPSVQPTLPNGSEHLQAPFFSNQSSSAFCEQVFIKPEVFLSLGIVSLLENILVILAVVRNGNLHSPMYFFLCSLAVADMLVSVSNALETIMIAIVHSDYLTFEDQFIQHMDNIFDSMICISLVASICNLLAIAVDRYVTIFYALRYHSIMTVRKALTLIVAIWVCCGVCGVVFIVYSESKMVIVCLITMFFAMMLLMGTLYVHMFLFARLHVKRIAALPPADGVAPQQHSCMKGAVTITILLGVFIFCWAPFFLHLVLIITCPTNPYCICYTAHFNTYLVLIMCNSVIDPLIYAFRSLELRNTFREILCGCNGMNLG
assay-name: cell-based or functional assay
Positions of bridges follow the written chain, without caps; N, C: chain ends. Non-standard residues stand in square brackets, D forms with d. Phe(4-Br) = N[C@@H](Cc1ccc(Br)cc1)C(=O)O; dPhe(4-F) = N[C@H](Cc1ccc(F)cc1)C(=O)O; d(αMeF) = C[C@@](N)(Cc1ccccc1)C(=O)O
assay-endpoint: cAMP EC50 (nM)
Respond with the bare value in nM.

Past entries and their recorded results:
binder	unit-string	cAMP EC50
Ac-RC[dA]R[Phe(4-Br)]R[dW]C-NH2 (disulfide 2-8) [CTX-1215]	nM	27
Ac-RC[dA]R[d(αMeF)]R[dW]C-NH2 (disulfide 2-8; SMILES CC(=O)N[C@@H](CCCNC(=N)N)C(=O)N[C@H]1CSSC[C@@H](C(N)=O)NC(=O)[C@@H](Cc2c[nH]c3ccccc23)NC(=O)[C@H](CCCNC(=N)N)NC(=O)[C@@](C)(Cc2ccccc2)NC(=O)[C@H](CCCNC(=N)N)NC(=O)[C@@H](C)NC1=O) [CTX-1279]	nM	43

# context switch: different binder, same cAMP EC50
Entry Ac-RC[dA]R[dPhe(4-F)]R[dW]C-NH2 (disulfide 2-8) [CTX-1236] : reported cAMP EC50 = ?
2.6
